# procedure_details: Selectivity index, ratio of TC50 for human HepG2(2.2.15) cells to IC50 for Hepatitis B virus early antigen secretion
# Type: toxicity
quantity_name: selectivity ratio
// no unit, no text: just the number

So for Cc1nnsc1C(=O)N/C(C(=O)N1CCCCC1)=C(\Cl)c1ccccc1 , the logged selectivity ratio turned out to be 5.23

---

# Test system: Hepatitis B virus
# procedure_details: Antiviral activity against HBV infected in HepG2(2.2.15) cells assessed as inhibition of viral surface antigen secretion after 8 days by radio immunoassay
# Format: functional, organism-based
quantity_name: IC50

# example entries with known answers
Cc1nnsc1/C(Br)=C(/NC(=O)c1ccccc1)C(=O)N1CCCCC1 : Not Active
Cc1nnsc1C(=O)N/C(C(=O)N1CCCCC1)=C(\Br)c1ccc(Cl)cc1 : Not Active
Cc1nnsc1/C=C(/NC(=O)c1ccccc1)C(=O)N1CCCCC1 : Not Active
Cc1nnsc1C(=O)N/C(C(=O)N1CCCCC1)=C(\Br)c1ccccc1Cl : Not Active
Cc1nnsc1/C(Br)=C(/NC(=O)c1ccccc1)C(=O)N1CCOCC1 : Not Active
Cc1nnsc1C(=O)N/C(C(=O)N1CCCCC1)=C(\Cl)c1ccccc1 : Not Active
Cc1nnsc1C(=O)N/C(C(=O)N1CCOCC1)=C(\Br)c1snnc1C : Not Active
Cc1nnsc1C(=O)N/C(C(=O)N1CCCCC1)=C(\Br)c1ccccc1 : Not Active
Nc1ccn([C@@H]2CS[C@H](CO)O2)c(=O)n1 [LAMIVUDINE] : Not Active
CCN(CC)C(=O)/C(NC(=O)c1ccccc1)=C(/Br)c1snnc1C : Not Active

Next compound, please.
So for Cc1nnsc1/C(Cl)=C(/NC(=O)c1ccccc1)C(=O)N1CCOCC1 , the logged IC50 turned out to be Not Active

Values compiled from ChEMBL document CHEMBL1157863.
